details: buffer; pH 7.4; 6.0 h; 150.0 µM
Known solubility kinetic of a selection of compounds
// note: answer is a bare numeric in µg/mL

COc1ccc(-c2ccc(C(=O)NC3CC(c4cc(=O)[nH]c(N)n4)C3)o2)cc1 (centres undefined)    30.4

Give solubility kinetic for Cc1ccc(NC(=O)c2ccncc2NS(=O)(=O)c2ccc(C)cc2)cc1
47.5

Give solubility kinetic for CC(Nc1ccc([S+](=O)([O-])Nc2nccs2)cc1)c1ccccc1 (centres undefined)
4.76

Give solubility kinetic for COc1ccc(C)cc1-n1nnnc1Sc1ncnc2scc(-c3ccc(Br)cc3)c12
2.38

Give solubility kinetic for O=C(Nc1nc(-c2ccccn2)cs1)c1cccc(-n2cnnn2)c1
1.1

Give solubility kinetic for Cc1nc2nc(NC(=O)c3ccc(C(C)(C)C)cc3)[nH]n2c(=O)c1Cl
14.7

Give solubility kinetic for Cc1nc([C@](C)(O)CO)sc1-c1cnc(N)c(O[C@H](C)c2cc(F)ccc2-n2nccn2)c1
37.3

Give solubility kinetic for COc1ccc(C2Nc3ccccc3C(=O)N2Cc2cccnc2)cc1COc1c(C)cc(NC(C)=O)cc1C (centres undefined)
1.69

Give solubility kinetic for CCOc1ccc(CCNC(=O)c2cc3c(s2)CCC3)cc1OCC
4.46

Give solubility kinetic for Oc1ccc(-c2nc(C3CC3)nc3c2CCN(Cc2ccc(F)cc2)CC3)cc1
8.86

Give solubility kinetic for Brc1ccc(-c2csc(N3CCNCC3)n2)cc1
6.59

###

settings: buffer; pH 7.4; 6.0 h; 150.0 µM
Decide using solubility kinetic: a value greater than or equal to 5 µg/mL is criterion met, a smaller one is criterion not met.

Cc1ccc(CN2CCOC[C@H]2c2ncc(-c3cccc(F)c3)[nH]2)cc1    criterion met
NC(=O)C1CCN(c2nc(-c3ccc(N)cc3)cs2)CC1    criterion met
Cc1ccc(Cl)cc1NS(=O)(=O)c1cc2c(cc1F)NC(=O)CC2    criterion not met
CC(C)(C)c1ccc(S(=O)(=O)c2cnc(SCC(=O)Nc3ccc(F)c(Cl)c3)[nH]c2=O)cc1    criterion met
COc1ccc(C(=O)Nc2ccc3c(c2)N(C2CCCC2)C(=O)c2ccccc2S3)cc1OC    criterion not met

Form field: solubility kinetic at least 5 µg/mL? Entry: COc1cc(-c2ccnc3c2c(C)nn3-c2ccc(C(F)(F)F)cc2)ccc1O
criterion met

###

conditions: buffer; pH 7.4; 6.0 h; 150.0 µM
Known solubility kinetic of a selection of compounds

Below, each entry is followed by its recorded solubility kinetic result.
O=C(Nc1nc(-c2ccccc2)cs1)c1ccncc1NS(=O)(=O)c1cccs1    < 1 µg/mL
CC(=O)c1c(C)[nH]c(C(=O)Nc2cccc([S+](=O)([O-])Nc3ccccc3C)c2)c1C    < 1 µg/mL

Give solubility kinetic for CC(C)c1ccccc1-c1ncc(F)c(NC2(c3ccc(-c4cccnc4)cc3)CC2)n1
< 1 µg/mL

###

Known solubility kinetic of a selection of molecules
details: buffer; pH 7.4; 6.0 h; 150.0 µM

Below, each entry is followed by its recorded solubility kinetic result.
CC(C)c1c(-c2ccccc2)nc2c(C#N)c[nH]n2c1=O    > 41 µg/mL
C1CCc2nc3c(nc2C1)CCCC3    > 28 µg/mL
O=C(c1ccc2c(c1)ncn2-c1cccc(Cl)c1)N1CCCCC1    > 50 µg/mL

Pending molecule:
Give solubility kinetic for O=C1CCc2cc(S(=O)(=O)Nc3ccc(F)c(Cl)c3)ccc2N1
> 52 µg/mL

###

details: buffer; pH 7.4; 6.0 h; 150.0 µM
reported.property: solubility kinetic

CCn1cc(C(=O)O)c(=O)c2cnc(N3CCN(C(=S)Nc4ccccc4)CC3)nc21    > 65 µg/mL
Cl.c1ccc(Nc2nc(NCc3ccco3)c3ccccc3n2)cc1    < 1 µg/mL
CCCCOc1ccc(CNC(=O)c2cc3n(n2)CCCN(Cc2ccc(C)cc2)C3=O)cc1    < 1 µg/mL

Pending compound:
Give solubility kinetic for Fc1cc(Nc2nc(-c3ccncc3)nc3ccccc23)ccc1-c1cccc(OC(F)(F)F)c1
< 1 µg/mL

###

Known solubility kinetic of a selection of compounds
settings: buffer; pH 7.4; 6.0 h; 150.0 µM

c1ccc2c(Nc3ccon3)nc(-c3ccncc3)nc2c1    < 1 µg/mL

Give solubility kinetic for COc1cccc(O)c1CNc1ccc(S(=O)(=O)Nc2nccs2)cc1
> 58 µg/mL

Give solubility kinetic for NC(=O)C1CCN(c2nc(-c3ccc(Br)cc3)cs2)CC1
< 1 µg/mL

Give solubility kinetic for Cc1ccc(NC(=O)N2CCN(c3nc(N)nc4sc(-c5cccnc5)nc34)CC2)cc1
< 1 µg/mL

Give solubility kinetic for COc1ccc2[nH]c(=O)c(-c3noc(-c4ccc(F)cc4)n3)cc2c1
< 1 µg/mL

Give solubility kinetic for Cc1ccc(-c2cc(C(=O)Nc3ccc(-n4cccn4)cc3)c3ccccc3n2)cc1C
< 1 µg/mL

###

conditions: buffer; pH 7.4; 6.0 h; 150.0 µM
reported.property: solubility kinetic

Below, each entry is followed by its recorded solubility kinetic result.
O=C(Cc1cccs1)NCc1nnc2ccc(-c3ccccc3)nn12    22 µg/mL
Cc1ccc2oc(NC3=NC4(CCCC4)C4=C(CCCC4=O)N3)nc2c1    < 1 µg/mL
CCCCn1cc2c(c1-c1ccc(Br)cc1)c(=O)n(C)c(=O)n2C    < 1 µg/mL
O=C(Nc1ncnc2sc3c(c12)CCC3)c1ccco1    11.5 µg/mL

Give solubility kinetic for Cc1ccc(S(=O)(=O)Nc2ccccc2CNc2nc(-c3ccccc3)cs2)cc1
< 1 µg/mL

Give solubility kinetic for CCN(CC)C(=O)c1sc2c(c1C)c(=O)n(Cc1ccccc1)c(=O)n2CC(=O)Nc1ccc(OC)cc1
< 1 µg/mL

Give solubility kinetic for O=C(Nc1nc(-c2ccccc2)cs1)c1ccncc1NS(=O)(=O)c1ccc2c(c1)CCC2
5.8 µg/mL

Give solubility kinetic for CCOC(=O)C1CCN(C(=O)Nc2ccc3c(c2)nc(C)n3C)CC1
> 51 µg/mL

Give solubility kinetic for C[C@]12N[C@H](Cc3ccccc31)c1ccccc12
> 33 µg/mL

###

conditions: buffer; pH 7.4; 6.0 h; 150.0 µM
reported.property: solubility kinetic

Give solubility kinetic for CC(C)COc1ccc(-c2ccc(=O)n(CC(=O)NCCc3ccccc3)n2)cc1
< 1 µg/mL

Give solubility kinetic for Cc1c(-c2nsc(NC(=O)c3cccc(Cl)c3)n2)nnn1-c1ccccc1C(F)(F)F
< 1 µg/mL

Give solubility kinetic for COc1ccc(-c2cc(C)nc3c(-c4ccc(OC)c(OC)c4)c(C)nn23)cc1
< 1 µg/mL

Give solubility kinetic for CN1CCC(N(Cc2cccs2)c2ccccc2)CC1
> 42 µg/mL

Give solubility kinetic for O=C(Nc1ccc(S(=O)(=O)Nc2nc(-c3ccccc3)cs2)cc1)c1ccc2ccccc2c1
< 1 µg/mL

Give solubility kinetic for Cc1ccc(NC2=C(c3ccc(C(F)(F)F)cc3)C(=O)c3ccccc32)cc1C
< 1 µg/mL

Give solubility kinetic for COc1ccc(C(=O)Nc2nc(-c3ccccc3)cs2)c(OC)c1
< 1 µg/mL

Give solubility kinetic for O=C(c1ccc2c(c1)ncn2-c1ccccc1)N1CCCCC1
> 45 µg/mL

Give solubility kinetic for O=C(Nc1ccc(S(=O)(=O)Nc2nccs2)cc1)c1ccc(-c2ccccc2)cc1
< 1 µg/mL

Give solubility kinetic for Fc1cc(Nc2nc(-c3ccncc3)nc3ccccc23)ccc1-c1cccnc1
< 1 µg/mL

Give solubility kinetic for Cn1cc(Nc2cnccc2C(=O)O)c2cccnc21
32.6 µg/mL

Give solubility kinetic for COc1ccc(C(=O)Nc2nc(-c3ccccc3)cs2)c(NS(=O)(=O)c2ccc(C)cc2)c1
< 1 µg/mL

Give solubility kinetic for COc1ccc(-c2cnc(N3CCC(C(N)=O)CC3)s2)cc1OC
18.8 µg/mL

Give solubility kinetic for CN[C@@H]1C[C@@H](c2ccc(Cl)c(Cl)c2)c2ccccc21
> 43 µg/mL

Give solubility kinetic for Cc1noc(C)c1C(=O)N1CCC2(CCCN(Cc3ccccc3)C2)CC1
< 1 µg/mL

Give solubility kinetic for NC(=O)C1CCN(c2ncc(-c3ccc4c(c3)OCO4)s2)CC1
5.31 µg/mL

Give solubility kinetic for O=C(Nc1ncc(Cc2ccc(C(F)(F)F)cc2)s1)c1ccco1
< 1 µg/mL

###

details: buffer; pH 7.4; 6.0 h; 150.0 µM
reported.property: solubility kinetic

Below, each entry is followed by its recorded solubility kinetic result.
CCOC(=O)c1[nH]c(C)c(CCC(=O)N2CCN(c3cccc(C)c3C)CC2)c1C    < 1 µg/mL
Cc1ccc(S(=O)(=O)Nc2cc(F)c(F)cc2C(=O)Nc2nc(-c3ccccc3)cs2)cc1    < 1 µg/mL

Pending compound:
Give solubility kinetic for O=C1CCCC2=C1C(c1[nH]ncc1Cl)N=C(Nc1nc3ccccc3o1)N2 (stereo not drawn)
< 1 µg/mL

###

conditions: buffer; pH 7.4; 6.0 h; 150.0 µM
reported.property: solubility kinetic

Below, each entry is followed by its recorded solubility kinetic result.
COc1ccc(N2Cc3cccc(C(=O)Nc4ccc(C(C)C)cc4)c3C2=O)cc1    < 1 µg/mL
CCN1CCN(C(=O)c2cc(-c3ccc(F)cc3)c3nncn3n2)CC1    > 52 µg/mL
N#Cc1ccccc1Nc1ncc(-c2cccc3ccccc23)o1    < 1 µg/mL

Give solubility kinetic for COC(=O)c1ccc(NC(=O)c2nc3ccccc3n(C)c2=O)cc1
< 1 µg/mL

Give solubility kinetic for Cc1ccc(S(=O)(=O)Nc2cnccc2C(=O)Nc2ccc(C#N)cc2)cc1
> 58 µg/mL

Give solubility kinetic for CN1CCN(C(=O)Cc2c[nH]c3ncc(-c4ccccc4Oc4ccccc4)cc23)CC1
> 42 µg/mL

Give solubility kinetic for CCCN1C(CC(C)C)=NS(=O)(=O)c2cc(NC(=O)c3ccco3)ccc21
< 1 µg/mL

Give solubility kinetic for O=C(Nc1ncc(Cc2ccc(C(F)(F)F)cc2)s1)c1cnc(-c2ccccc2)[nH]1
< 1 µg/mL

Give solubility kinetic for Cc1ccc(-c2cc(C(=O)NCc3ccc(S(N)(=O)=O)cc3)c3ccccc3n2)cc1C
< 1 µg/mL

Give solubility kinetic for Cc1ccc(OCCn2c(CCNC(=O)c3ccc(Cl)cc3)nc3ccccc32)cc1
< 1 µg/mL

Give solubility kinetic for CN(C)C(=O)c1ccc(-c2cc[nH]c(=O)c2N)cc1
> 38 µg/mL

Give solubility kinetic for CC(C)C[C@H]1C(=O)N2CCC[C@H]2[C@]2(O)O[C@](NC(=O)[C@@H]3C=C4c5cccc6[nH]c(Br)c(c56)C[C@H]4N(C)C3)(C(C)C)C(=O)N12
< 1 µg/mL

Give solubility kinetic for Fc1cc(-c2nc(Nc3ccc(F)c(F)c3)c3ccccc3n2)ccn1
< 1 µg/mL

Value source: PubChem BioAssay AID1645848
